Recorded measurements of PBM binding z-score, one per entry
- System: RARa:RXR (NR concentration 270 nM, RXRa partner concentration 90 nM)
- experiment: PBM binding z-score (relative to random genomic background probes); higher = stronger binding; sequences stand for … in GC…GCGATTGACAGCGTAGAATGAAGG

sequence_entry: GCTGCTAGGTCCGGTTGGTCAGCTAACGGGTACG
metric_name: PBM binding z-score
result: -0.552

sequence_entry: GTTCGGAGGACAAGGTCAGAGCTTTGTCCGTAGA
metric_name: PBM binding z-score
result: 2.17

sequence_entry: TCGAATAGGTTAGTCGGGGCATTCAGCCAACATA
metric_name: PBM binding z-score
result: 0.628

Now, please, on to the next sequence.
State, for RARa:RXR (NR concentration 270 nM, RXRa partner concentration 90 nM), measured PBM binding z-score of the sequence listed here: TCAGACAGTTGAAGGTAACTCAGGTACGCAGTCG
0.843

* * *

- System: LXRa:RXRa (NR concentration 270 nM, RXRa partner concentration 90 nM)
- experiment: PBM binding z-score (relative to random genomic background probes); higher = stronger binding; sequences stand for … in GC…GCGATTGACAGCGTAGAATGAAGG
Rule: PBM binding z-score of 0.7 or more gives Met; anything lower gives Not met.

sequence_entry: CTCGAAAGGTCGTGCTCCGGTGAGTATACCAAAC
cat: Met
//
sequence_entry: CCTTACGGGTCACGAGTTTATAGCACGACGAGCG
cat: Met
//
sequence_entry: GCGACGGGGGCAAAGCAGGTTACCATAAGGTTGG
cat: Met
//
sequence_entry: CCTACTGGGCCACGAAAGGTCATAGATTCAGTGA
cat: Met
//
sequence_entry: CCGAGTAGGTTATGGCGCATTCAGGCAACGGTGA
cat: Not met

Is PBM binding z-score for CTACCAAGGTGAACAAGGTCCTTGATTACTATTC at or above 0.7?
Not met

Say whether GGAACGAGGGCAAAGTAGATAGCATCTGTCGACG shows PBM binding z-score of 0.7 or more.
Not met

Item CGTCCAAGGTCAAAAGTCAGTGAAGAGATGACGG with PBM binding z-score of 0.7 or above?
Met

Check the entry TCGAGTAGGTTACCAATGGGGCATTCACCTTTCT : does PBM binding z-score equal or exceed 0.7?
Met

Please tell me: is the sequence ACTTACGGGTCAACGAGGGTATAGCACGCGTATA at or over 0.7 in terms of PBM binding z-score?
Met

* * *

- System: RARa:RXR (NR concentration 270 nM, RXRa partner concentration 90 nM)
- experiment: PBM binding z-score (relative to random genomic background probes); higher = stronger binding; sequences stand for … in GC…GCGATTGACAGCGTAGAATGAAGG
metric_name: PBM binding z-score

Solved entries (count: 3):
sequence_entry: ATATGTAGGCTATCGGGTCATTCAGTTTGCGCAT
result: 2.54
//
sequence_entry: CCTACTGGGCCACGCAAGGTCATTGATTCAGTGA
result: 3.48
//
sequence_entry: TCTATTCGTTGATTAGGGCAACCGAAACAGCGGA
result: 0.417

Provide RARa:RXR (NR concentration 270 nM, RXRa partner concentration 90 nM) PBM binding z-score reading for CGAACGAGGGCAAGAGTTGATAGCAAATGCCGAT .
0.316

Tell me its PBM binding z-score on RARa:RXR (NR concentration 270 nM, RXRa partner concentration 90 nM): ACAGACATGTGAGTGAAGGTAACTCAGCTGGACG
-0.531

Please report PBM binding z-score with RARa:RXR (NR concentration 270 nM, RXRa partner concentration 90 nM) for item ATTTCTAGGTAACAAGTTCAGTGAAAGAGAGGAC .
1.45

Retrieve PBM binding z-score on RARa:RXR (NR concentration 270 nM, RXRa partner concentration 90 nM); query CTCGAAAGGTCGTGCTCAGTTGAGTATACCAAAC
3.85

* * *

- System: PXR:RXRa (NR concentration 270 nM, RXRa partner concentration 90 nM)
- experiment: PBM binding z-score (relative to random genomic background probes); higher = stronger binding; sequences stand for … in GC…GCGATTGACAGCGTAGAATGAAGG
Class key for PBM binding z-score values: low class = under 1, middle class = from 1 up to 3, high class = 3 and over

sequence_entry: ACTAGTTGGTCAGCTGAGGTCATACACAATTCGG
cat: high class
//
sequence_entry: CCGACTGGGGCAGAAAGGTTAGCATACCATCCGG
cat: low class
//
sequence_entry: CGTCTAAGGTCAATGCTAGGTCAGTGAAAGCATT
cat: high class
//
sequence_entry: TTACCAAGGTGAAGGTCGTTGGTCCCTCTGTAGA
cat: middle class

Bin? AGTCAAAGTTCAGGACGATGTAACGTAAAGCACG
middle class

For CCTCGGAGGAAAGAAGGTCAGAGCTGTCCGCTTT , which PBM binding z-score bin applies?
middle class

* * *

- System: LXRb homodimer (NR concentration 270 nM)
- experiment: PBM binding z-score (relative to random genomic background probes); higher = stronger binding; sequences stand for … in GC…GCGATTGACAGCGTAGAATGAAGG
Mark false (0) for PBM binding z-score values under -0.5, and true (1) for everything at or above.

Is PBM binding z-score for CGTCAAAGTTCAACTAAGGAAACGTAAAGCACGC at or above -0.5?
true (1)

Identify whether the reported PBM binding z-score of the following sequence is -0.5 or greater: TAGCCTAGGTCATTCAGGGGCCAGTAGAGAAAGC
true (1)

Record CGTCCACGGTCAGCAGGTCAGTGAAAGCGACGTG ; criterion: PBM binding z-score no lower than -0.5. Met?
false (0)

Could you tell me if the measured PBM binding z-score of CAATCTAGGTCACCGGAAGGTCAAAGTCCGCATG reaches -0.5 or more?
true (1)

Check this sequence for PBM binding z-score at or above -0.5: GCATGTAGGTAATACAAGGTGAAAGTCCGATTGT
true (1)

Quick check, PBM binding z-score >= -0.5? GGAACGAGGGCATTCGAGTTGATCGCATGGCGAT
false (0)

Is reported PBM binding z-score greater than or equal to -0.5 here: TCTGCTAGGTCAGTTGGTCAGCTATCGAGCTGCC
true (1)

Assess whether reported PBM binding z-score for TCTTGGAGATCAACAGGAGGTTAAGAAAGATCGA sits at -0.5 or higher.
false (0)

* * *

# PBM binding z-score annotations
- System: LXRb:RXRa (NR concentration 270 nM, RXRa partner concentration 90 nM)
- experiment: PBM binding z-score (relative to random genomic background probes); higher = stronger binding; sequences stand for … in GC…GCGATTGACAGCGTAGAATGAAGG
Reply: number alone, nothing else.

Below are worked cases with known answers.
sequence_entry: CAAACTAGGTCACCGGAAGGCCAAAGTCCGCATG
PBM binding z-score: 2.46
--
sequence_entry: GCTCGGAGGACAAGGTCAGAGCCTTGTCCGTAGA
PBM binding z-score: 1.59
--
sequence_entry: CCTCGGAGGACAGAAGTTCAGAGCTGTCCGCTTT
PBM binding z-score: -0.479
--
sequence_entry: TCTTGTAGATCAAGCAGGTTTAGAAAGCCTGAGT
PBM binding z-score: -0.134
--
sequence_entry: CCTACTGGGCCGCGAAAGGTCATTGATTCAGTGA
PBM binding z-score: 3.85
--
sequence_entry: AGTCAAAGTTCACTAGGTCACGTAAGATTCAGCT
PBM binding z-score: 4.32
--
sequence_entry: CCCTACGGGTCAAGGTTATAGCACGGGTGGTACG
PBM binding z-score: 2.78
--
sequence_entry: CAAACTAGTTCAAGGTCAAAGTCGGTTTGTGCCA
PBM binding z-score: 4.81

Indicate the recorded PBM binding z-score value for this sequence: AGTCAAAGTTCAGGACGAGGTTACGTAAAGCACG
2.7

Answer with the recorded PBM binding z-score of CGAACTAGGTCATCAAGGACAGTGAATACATTGA only.
1.76

Output PBM binding z-score of TGTCAAAGTTCATAGGTAACGTAAGTATCCACAC
4.02

Input GCTGCTAGGTCAACTGATGGTCCGCTAAAGCTCG , output reported PBM binding z-score.
1.92

Supply recorded PBM binding z-score for TCTAGCAGGCCAGAGGGTCCCTCAAGAGGTACGG here.
-1.08

Output measured PBM binding z-score for this item: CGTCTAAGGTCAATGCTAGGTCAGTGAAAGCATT
4.58

Determine its reported PBM binding z-score: CCTAGCAGGCCAATCTGGGTCACACAAGGCTTGA
1.21

Query PBM binding z-score for GTACCAAGGTGCATAGGTCGTTGATGAGTAGGCG
-0.189

Answer with reported PBM binding z-score of GCTTACGGGTCAAACGTTATAGCATGAATAGAAT
4.02
